Source listed as paper PMC5540273.

- Test system: CDC2L1
- Construct: gene CDK11B
- conditionDescription: concentration: 1 μM, replicates: in singlicate; n = 1;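 also: KINOMEscan kinase panel screen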
Response field label takes fulfilled when %Inh is strictly below 2% and not fulfilled in all other cases.

Here are 3 compounds together with their reported answers.
compound	qualitativeLabel
CN(c1ccc(F)c(NC(=O)c2cccc(OC(C)(C)C#N)c2Cl)c1)c1ccc2nc(NC(=O)C3CC3)sc2n1	fulfilled
Cc1ccc(O)cc1Nc1ccnc2cc(-c3ccc(CN4CCCCC4)o3)ccc12 [GW557777]	not fulfilled
CN(C)CCNS(=O)(=O)c1ccc(-c2ccnc3[nH]ccc23)cc1 [GSK977620]	fulfilled

Is %Inh of c1ccc(Oc2ccc(Nc3ccnc4cc(-c5ccc(CN6CCCCC6)o5)ccc34)cc2)nc1 [GW567143] strictly below 2%?
fulfilled

Continue with Cc1ccccc1CC(=O)N1CCc2cc(-c3cn(C)c4ncnc(N)c34)ccc21 [GSK2603346]
fulfilled

###

Recorded %Inh for the following compounds
- Tested on: BMPR1A
- conditionDescription: concentration: 1 μM, replicates: in singlicate; n = 1
Hi! Could you send only the number? It should be in %, unit omitted.

Example entries and their recorded answers appear below.
compound	%Inh (%)
O=C(Nc1n[nH]c2nc(-c3cccc(O)c3)ccc12)C1CC1	8
COc1cccc2c(-c3ccncc3)c(-c3ccc(F)cc3)nn12	0
Cn1cc(-c2ccc3c(c2)CCN3C(=O)Cc2cc(F)cc(C(F)(F)F)c2)c2c(N)ncnc21	0

Request: %Inh, test system BMPR1A, entry NCCC(NC(=O)c1cc(Br)c(-c2ccnc3[nH]ccc23)s1)c1ccccc1.O=C(O)C(F)(F)F.O=C(O)C(F)(F)F (stereo not shown)
0

###

- Tested on: MYLK4
- conditionDescription: concentration: 1 μM, replicates: in singlicate; n = 1
%Inh listing for selected molecules.
Kindly answer with a numeric value in %, unit omitted.

Solved cases (5 shown):
molecule	%Inh (%)
Cc1ccc(NC(=O)c2ccc(Cl)c(Cl)c2)cc1-c1ccc(C(=O)Nc2ccncc2)cc1 [GSK1398460]	5
CCOc1nccc(-c2c(-c3ccc(F)cc3)ncn2C2CCNCC2)n1 [SB-249175]	19
CN1CCN(Cc2ccc(NC(=O)Nc3ccc(N(C)c4ccnc(Nc5ccc(CS(C)(=O)=O)cc5)n4)cc3)cc2)CC1.Cl [GW827654]	18
Cc1ccc(NC(=O)c2ccnc(N3CCCCC3)c2)cc1-c1ccc(C(=O)NCC2CC2)cc1 [GW775610]	0
N#CC1(c2cccc(C(=O)Nc3cccc(Oc4ccc5nc(NC(=O)C6CC6)sc5n4)c3)c2)CC1	0

Requested field: %Inh. Item: N#Cc1cnc2cc(-c3cnc(CNCCN4CCOCC4)s3)ccc2c1Nc1ccc(Oc2ccccc2)cc1 [GW664114]
13

// next record O=C1NC(=O)C(c2ccccc2Cl)=C1Nc1cccc(Cl)c1 [SB-342409]
3

Proceed to Cc1cc(-c2ccnc(Nc3cccc(C#N)c3)n2)cc(C)c1O [GSK1440913]
100

###

- Test system: TNNI3K
- conditionDescription: concentration: 1 μM, replicates: in singlicate; n = 1
readoutLabel: %Inh (%)
Dear colleague, please return just the value in %, with no unit written.

compound	readoutLabel	unitText	resultValue
c1ccc(Oc2ccc(Nc3ccnc4cc(-c5ccc(CN6CCCCC6)o5)ccc34)cc2)nc1	%Inh	%	1
Cc1ccc(NC(=O)c2cccc(N3CCCCC3)c2)cc1-c1ccc(C(=O)NCC2CC2)cc1	%Inh	%	28
Cn1cc(-c2ccc3c(c2)CCN3C(=O)Cc2cc(F)cc(F)c2F)c2c(N)ncnc21	%Inh	%	0
COC(=O)Nc1nc2cc(Oc3ccc(NC(=O)Nc4cccc(SC)c4)cc3)ccc2[nH]1.Cl	%Inh	%	81
Cl.Cl.NC(CNC(=O)c1cc(Br)c(-c2ccnc3[nH]ccc23)s1)c1ccccc1 (centres unmarked)	%Inh	%	0

Give the measured %Inh of Nc1ncc(-c2ccc3nccc(-c4ccncc4)c3c2)cc1S(=O)(=O)N1CCCCC1 .
1

One more compound: Cn1cc(-c2cnc(N)c3c(-c4ccc5c(c4)CCN5C(=O)Cc4ccccc4)csc23)cn1
0

Next record, please: CN(c1ccc(NC(=O)Nc2cccc(Cl)c2)cc1)c1ccnc(N)n1.Cl
19

###

Catalogue of compounds with associated %Inh
- Test system: FLT3-autoinhibited
- conditionDescription: concentration: 1 μM, replicates: in singlicate; n = 1
Form entry: value (%) — number only.

compound	resultValue
CN1CCN(Cc2ccc(NC(=O)Nc3ccc(N(C)c4ccnc(Nc5ccc(CS(C)(=O)=O)cc5)n4)cc3)cc2)CC1.Cl [GW827654]	95.2
Cc1cccc(Nc2nc(NCCN)ncc2C(N)=O)c1 [GSK1292139]	15
CCOc1nccc(-c2c(-c3ccc(F)cc3)ncn2C2CCNCC2)n1 [SB-249175]	18
COc1ccc(NC(=O)c2ccoc2)cc1-c1ccc(C(=O)NCC2CC2)cc1 [GW810437]	0

Entry under review: COc1cccc2c(-c3ccncc3)c(-c3ccc(F)cc3)nn12 [GW468513] . Reported %Inh?
0

Also, CN(c1ccc(NC(=O)Nc2cccc(Cl)c2)cc1)c1ccnc(N)n1.Cl [GW830707] please.
56

###

- Test system: PKMYT1
- conditionDescription: concentration: 1 μM, replicates: in singlicate; n = 1
readoutLabel: %Inh (%)
Give just the numeric value; % need not be written.

Worked examples follow.
molecule	resultValue
COc1ccc(C)c(Nc2ccnc(Nc3ccc(-c4cnc[nH]4)cc3)n2)c1.Cl	2
Cc1ccc(C)c(NC(=O)Nc2ccc(C)c(-c3ccc(C(=O)Nc4ccncc4)cc3)c2)c1	17
CC(C)(C)c1ccc(C(=O)Nc2cn3cc(-n4ccnc4)ccc3n2)cc1	0

Report %Inh for Cl.Cl.NC(CNC(=O)c1cc(Br)c(-c2ccnc3[nH]ccc23)s1)c1ccccc1 (stereo not shown) please.
16

// repeat for COc1cccc(CC(=O)N2CCc3cc(-c4cn(C)c5ncnc(N)c45)ccc32)c1 and report
10

Request: Cc1cc(-c2c(-c3ccc(F)cc3)ncn2CCCN2CCOCC2)nc(N)n1
4

Try this molecule too: Cc1cccc(Nc2nc(N[C@H]3CCCC[C@H]3N)ncc2C(N)=O)c1.Cl
16

And the next one, CN(c1ccc(F)c(NC(=O)c2cccc(OC(C)(C)C#N)c2Cl)c1)c1ccc2nc(NC(=O)C3CC3)sc2n1 ?
4

Repeat with CNc1nccc(-c2ccc3c(N)n[nH]c3c2)n1
4

Record: Fc1cc(Cl)ccc1Nc1ccnc2cc(-c3ccc(CN4CCOCC4)o3)ccc12
0

Can you handle Cc1ccc(NC(=O)c2ccnc(N3CCCCC3)c2)cc1-c1ccc(C(=O)NCC2CC2)cc1 next?
8

Try Cc1cccc(Nc2nc(NCCN)ncc2C(N)=O)c1 next.
7

Entry to check: CC(=O)Nc1cn2nc(Oc3cccc(NC(=O)c4cccc(C(F)(F)F)c4)c3)ccc2n1
0

###

The reader will find reported %Inh values listed item by item below.
- Tested on: DCAMKL3
- Construct: gene DCLK3
- conditionDescription: concentration: 1 μM, replicates: in singlicate; n = 1
Respond with the bare value in %.

molecule	testSystem	readoutLabel	resultValue
CN(C)CCOc1ccc(-c2cc(-c3ccc(Cl)c(O)c3)c(-c3ccncc3)[nH]2)cc1.Cl.Cl	DCAMKL3	%Inh	10
CC(C)(C)c1ccc(C(=O)Nc2cn3cc(-n4ccnc4)ccc3n2)cc1	DCAMKL3	%Inh	0
Cn1cc(-c2ccc3c(c2)CCN3C(=O)Cc2cc(F)cc(C(F)(F)F)c2)c2c(N)ncnc21	DCAMKL3	%Inh	0
COc1cccc2c(-c3ccncc3)c(-c3ccc(F)cc3)nn12	DCAMKL3	%Inh	0
Cn1cc(-c2ccc3c(c2)CCN3C(=O)Cc2cc(F)cc(F)c2F)c2c(N)ncnc21	DCAMKL3	%Inh	0
O=C(Nc1n[nH]c2nc(-c3ccccc3)ccc12)C1CC1	DCAMKL3	%Inh	0
Cc1cc(-c2ccnc(Nc3cccc(C#N)c3)n2)cc(C)c1O	DCAMKL3	%Inh	61
Cl.N#CCc1ccc(Nc2nccc(Nc3ccc(Oc4ccccc4)cc3)n2)cc1	DCAMKL3	%Inh	1

Form field: %Inh recorded for CN(c1ccc(NC(=O)Nc2cccc(Cl)c2)cc1)c1ccnc(N)n1.Cl with DCAMKL3 (enter value)
4

Try the molecule NCCC(NC(=O)c1cc(Br)c(-c2ccnc3[nH]ccc23)s1)c1ccccc1.O=C(O)C(F)(F)F.O=C(O)C(F)(F)F (centres unmarked)
0

###

Entries and their %Inh
- System: WNK4
- conditionDescription: concentration: 1 μM, replicates: in singlicate; n = 1
Report field: quantity (unit follows the number).

Would you kindly share the measured %Inh for Cc1cccc(Nc2nc(N[C@H]3CCCC[C@H]3N)ncc2C(N)=O)c1.Cl ?
0%

###

- Test system: MAP4K5
- conditionDescription: concentration: 1 μM, replicates: in singlicate; n = 1
Reported %Inh values for a set of compounds
Expressed in %, but write only the number.

compound	resultValue
COc1cccc2c(-c3ccncc3)c(-c3ccc(F)cc3)nn12	2
Cc1ccc(NC(=O)c2ccc(Cl)c(Cl)c2)cc1-c1ccc(C(=O)Nc2ccncc2)cc1	0
Cc1ccccc1CC(=O)N1CCc2cc(-c3cn(C)c4ncnc(N)c34)ccc21	88
Cc1ccc(NC(=O)c2cccc(N3CCCCC3)c2)cc1-c1ccc(C(=O)NCC2CC2)cc1	22
COc1cc(Nc2ccnc3cc(-c4ccncc4)ccc23)cc(OC)c1OC.Cl	55

Any idea what its %Inh is? The compound is Nc1ncc(-c2ccc3nccc(-c4ccncc4)c3c2)cc1S(=O)(=O)N1CCCCC1
6

Here is the next compound: Cl.Cl.NCC(NC(=O)c1cc(-c2cccnc2)c(-c2ccnc3[nH]ccc23)s1)c1ccccc1 (stereo not drawn)
0

Continue with COc1ccc(C)c(Nc2ccnc(Nc3ccc(-c4cnc[nH]4)cc3)n2)c1.Cl
19
